# Target system: hFXR (Homo sapiens, UniProt Q96RI1)
# Sequence (Q96RI1 1-486): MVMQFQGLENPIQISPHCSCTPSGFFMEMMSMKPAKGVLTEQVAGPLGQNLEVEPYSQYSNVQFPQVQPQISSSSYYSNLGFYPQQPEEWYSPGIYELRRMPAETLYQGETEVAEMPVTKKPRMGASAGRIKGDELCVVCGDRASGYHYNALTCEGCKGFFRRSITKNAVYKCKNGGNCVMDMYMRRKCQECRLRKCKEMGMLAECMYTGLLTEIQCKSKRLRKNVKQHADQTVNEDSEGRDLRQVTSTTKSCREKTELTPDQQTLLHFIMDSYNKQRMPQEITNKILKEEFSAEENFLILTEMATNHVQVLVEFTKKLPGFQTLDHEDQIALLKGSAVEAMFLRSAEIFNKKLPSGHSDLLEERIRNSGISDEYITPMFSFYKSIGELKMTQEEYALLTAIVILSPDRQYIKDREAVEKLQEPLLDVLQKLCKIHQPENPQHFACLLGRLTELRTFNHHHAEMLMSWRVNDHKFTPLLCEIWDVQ
# Sequence (P19793 1-462 partner): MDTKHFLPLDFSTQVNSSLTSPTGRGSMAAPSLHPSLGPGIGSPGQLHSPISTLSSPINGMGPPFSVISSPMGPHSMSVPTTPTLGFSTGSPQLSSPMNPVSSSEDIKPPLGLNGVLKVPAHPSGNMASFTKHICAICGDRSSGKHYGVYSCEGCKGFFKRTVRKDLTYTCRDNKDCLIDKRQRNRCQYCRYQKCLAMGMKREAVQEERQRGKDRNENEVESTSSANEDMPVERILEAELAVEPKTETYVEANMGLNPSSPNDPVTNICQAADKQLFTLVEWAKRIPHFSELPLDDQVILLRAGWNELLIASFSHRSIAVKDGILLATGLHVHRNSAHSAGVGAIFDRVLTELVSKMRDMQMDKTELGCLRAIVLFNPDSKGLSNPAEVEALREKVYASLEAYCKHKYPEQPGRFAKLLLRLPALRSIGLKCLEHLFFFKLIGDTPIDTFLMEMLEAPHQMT
# Assay remarks: In Vitro FXR Assay (TK): TK-ECRE-luc reporter in transfected CV-1 cells
# Condition parameters: 18 hrs, luminescence, maximum efficacy of <25% of the Fexarmine control classified as '+'
pEC50: −log10 of the molar value.
Recorded metric: pEC50

# annotated cases, reported pEC50 shown
response.value for COc1ccc(C23CCC(CN(c4cccc(-c5cnn(C6CC6)c5)c4)C(=O)[C@H]4CC[C@H](NC(=O)CO)CC4)(CC2)CC3)cc1C [Compound 26.09] (field: pEC50) = ≥ 6.60

response.value for COc1ccc([C@H]2CC[C@H](CN(c3cc(-c4coc(C5CC5)n4)ccn3)C(=O)[C@H]3CC[C@H](OC(=O)N4CC(N(C)C)C4)CC3)CC2)nc1C [Compound 7.79] (field: pEC50) = ≥ 6.60

response.value for CCNC(=O)O[C@H]1CC[C@H](C(=O)N(C[C@H]2CC[C@H](c3ccc(OC)c(C)c3)CC2)c2cccc(-c3cnn(C4CC4)c3)c2)CC1 [Compound 3.01] (field: pEC50) = ≥ 6.60

response.value for COc1ccc([C@H]2CC[C@H](CN(c3cccc(-c4cnn(C5CC5)c4)c3)C(=O)[C@H]3CC[C@H](OC(=O)NCCNC(C)=O)CC3)CC2)cc1C [Compound 26.23] (field: pEC50) = ≥ 6.60

response.value for CNC(=O)O[C@H]1CC[C@H](C(=O)N(C[C@H]2CC[C@H](c3ccc(OC)c(C#N)n3)CC2)c2cccc(-c3coc(C4CC4)n3)c2)CC1 [Compound 5.42] (field: pEC50) = ≥ 6.60

Continuing:
response.value for CNC(=O)O[C@H]1CC[C@H](C(=O)N(C[C@H]2CC[C@H](c3ccc(OC)c(C)c3)CC2)c2cccc(-c3coc(C4CC4)n3)c2)CC1 [Compound 2.06] (field: pEC50) = ≥ 6.60

response.value for CNC(=O)O[C@H]1CC[C@H](C(=O)N(C[C@H]2CC[C@H](c3ccc(OC)c(C#N)c3)CC2)c2cccc(-c3cnn(C4CC4)c3)c2)CC1 [Compound 5.14] (field: pEC50) = ≥ 6.60

response.value for COc1ccc([C@H]2CC[C@H](CN(c3cc(-c4cnn(C5CC5)c4)ccn3)C(=O)[C@H]3CC[C@H](NC(=O)COC(C)=O)CC3)CC2)cc1C [Compound 26.31] (field: pEC50) = ≥ 6.60

response.value for COc1ccc([C@H]2CC[C@H](CN(c3cccc(-c4cnn(C(C)C)c4)c3)C(=O)[C@H]3CC[C@H](OC(=O)N4CC(CO)C4)CC3)CC2)nc1C [Compound 7.61] (field: pEC50) = ≥ 6.60

response.value for COc1ccc([C@H]2CC[C@H](CN(c3cc(-c4coc(C5CC5)n4)ccn3)C(=O)[C@H]3CC[C@H](CC(=O)O)CC3)CC2)cc1C [Compound 21.01] (field: pEC50) = ≥ 6.60

response.value for COc1ccc([C@H]2CC[C@H](CN(c3cccc(-c4cnc(C(C)C)s4)c3)C(=O)[C@H]3CC[C@H](OC(=O)N4CC(O)C4)CC3)CC2)nc1C [Compound 7.05] (field: pEC50) = ≥ 6.60

response.value for COc1ccc([C@H]2CC[C@H](CN(c3cccc(-c4cnn(C(C)C)c4)c3)C(=O)[C@H]3CC[C@H](OC(=O)NCCO)CC3)CC2)nc1C [Compound 6.15] (field: pEC50) = ≥ 6.60

response.value for CNC(=O)O[C@H]1CC[C@H](C(=O)N(C[C@H]2CC[C@H](c3ccc4c(c3)c(F)nn4C)CC2)c2cccc(-c3cnn(C4CC4)c3)c2)CC1 [Compound 1.09] (field: pEC50) = ≥ 6.60

response.value for COc1ccc([C@H]2CC[C@H](CN(c3cc(-c4cnn(C(C)C)c4)ccn3)C(=O)[C@H]3CC[C@H](OC(=O)N4CC(O)C4)CC3)CC2)cc1C#N [Compound 7.22] (field: pEC50) = ≥ 6.60

response.value for CNC(=O)O[C@H]1CC[C@H](C(=O)N(C[C@H]2CC[C@H](c3ccc(OC)c(C)c3)CC2)c2cccc(-c3coc(C(C)C)n3)c2)CC1 [Compound 5.30] (field: pEC50) = ≥ 6.60

response.value for COc1ccc([C@H]2CC[C@H](CN(c3cc(-c4coc(C5CC5)n4)ccn3)C(=O)[C@H]3CC[C@H](OC(=O)N4CC(S(C)(=O)=O)C4)CC3)CC2)nc1C [Compound 6.61] (field: pEC50) = ≥ 6.60

response.value for COc1ccc([C@H]2CC[C@H](CN(c3cccc(-c4cnc(C5CC5)s4)c3)C(=O)[C@H]3CC[C@H](OC(=O)NCCO)CC3)CC2)nc1C [Compound 6.07] (field: pEC50) = ≥ 6.60

response.value for COc1ccc([C@H]2CC[C@H](CN(c3cc(-c4coc(C5CC5)n4)ccn3)C(=O)[C@H]3CC[C@H](OC(=O)NC4COC4)CC3)CC2)nc1C [Compound 6.60] (field: pEC50) = ≥ 6.60

response.value for COc1ccc([C@H]2CC[C@H](CN(c3cccc(-c4cnn(C5CC5)c4)c3)C(=O)[C@H]3CC[C@H](NC(=O)CNS(C)(=O)=O)CC3)CC2)cc1C [Compound 31.03] (field: pEC50) = ≤ 6.00

response.value for COc1ccc([C@H]2CC[C@H](CN(c3cc(-c4coc(C5CC5)n4)ccn3)C(=O)[C@H]3CC[C@H](OC(=O)N4CC(N5CC(O)C5)C4)CC3)CC2)nc1C [Compound 7.108] (field: pEC50) = ≥ 6.60

response.value for COCCN(C)C(=O)O[C@H]1CC[C@H](C(=O)N(C[C@H]2CC[C@H](c3ccc(OC)c(C)n3)CC2)c2cc(-c3coc(C4CC4)n3)ccn2)CC1 [Compound 6.63] (field: pEC50) = ≥ 6.60

response.value for COc1ccc([C@H]2CC[C@H](CN(c3cc(-c4cnn(C(C)C)c4)ccn3)C(=O)[C@H]3CC[C@H](OC(=O)N4CC(N(C)C)C4)CC3)CC2)nc1C [Compound 7.58] (field: pEC50) = ≥ 6.60

Data origin: patent US20220089575A1
